# System: Mus musculus
# assayDetails: Cmax in C57BL/6 mouse assessed as INT-747 level at 10 mg/kg, po administered via gavage
# Format: ADME, organism-based
# Set-up: dose 10 mg/kg, route oral
# conditionSummary: in vivo

{"columns": ["itemSmiles", "resultUnit", "Cmax"],
 "data": [
  ["CC[C@H]1[C@@H](O)[C@@H]2[C@H](CC[C@]3(C)[C@@H]([C@H](C)CCC(=O)NS(C)(=O)=O)CC[C@@H]23)[C@@]2(C)CC[C@@H](O)C[C@@H]12", "nM", 446]
]}

###

# assayDetails: Ratio of drug level in C57BL/6 mouse liver to plasma at 10 mg/kg, po administered as single dose via gavage measured at 3 hrs post dose by LC-MS/MS analysis
# Type: ADME, organism-based
reportedMetric: Kp at 3 h

{"columns": ["itemSmiles", "reportedMetric", "dataValue"],
 "data": [
  ["CC[C@H]1[C@@H](O)[C@@H]2[C@H](CC[C@]3(C)[C@@H]([C@H](C)CCC(=O)NS(C)(=O)=O)CC[C@@H]23)[C@@]2(C)CC[C@@H](O)C[C@@H]12", "Kp at 3 h", 52]
]}
